Biological target: c-MYC (Homo sapiens, UniProt P01106)
Construct: recombinant c-MYC protein (RayBiotech) immobilized on CM5 chip
Sequence (P01106 16-454): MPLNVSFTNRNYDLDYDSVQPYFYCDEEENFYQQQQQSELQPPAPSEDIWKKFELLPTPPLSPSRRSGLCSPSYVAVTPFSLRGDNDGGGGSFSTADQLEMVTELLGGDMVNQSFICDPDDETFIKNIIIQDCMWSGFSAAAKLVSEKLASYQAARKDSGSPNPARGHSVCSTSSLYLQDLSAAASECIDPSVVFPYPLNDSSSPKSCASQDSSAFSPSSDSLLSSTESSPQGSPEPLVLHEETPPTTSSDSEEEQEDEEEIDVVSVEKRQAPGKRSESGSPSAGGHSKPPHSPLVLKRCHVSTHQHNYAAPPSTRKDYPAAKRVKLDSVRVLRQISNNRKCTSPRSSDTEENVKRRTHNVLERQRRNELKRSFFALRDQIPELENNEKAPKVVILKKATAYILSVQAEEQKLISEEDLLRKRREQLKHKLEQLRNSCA
Assay: SPR (Biacore X100, steady-state affinity)
VALUE TYPE: pKd
Expect pKd as a plain number equal to -log10 of the molar concentration.

Q) GET /values?readout=pKd&item= Nc1cc(F)ccc1NC(=O)c1ccc(CNC(=O)/C=C/c2cccnc2)cc1 [chidamide]
A) 6.10

---

Biological target: MYC (Homo sapiens, UniProt P01106, A416G/K413A/P406A/V409A)
Construct: recombinant MYC protein carrying the predicted substitutions (MedChemExpress HY-P7S1056)
Sequence (P01106 16-454 P406A/V409A/K413A/A416G): as the sequence (P01106 16-454) above, with P391A, V394A, K398A, A401G counted along it
Assay: SPR (Biacore X100, steady-state affinity)
VALUE TYPE: pKd
Expect pKd as a plain number equal to -log10 of the molar concentration.

Q) GET /values?readout=pKd&item= Nc1cc(F)ccc1NC(=O)c1ccc(CNC(=O)/C=C/c2cccnc2)cc1 [chidamide]
A) 5.51
